System: Spontaneously Hypertensive Rats
Assay: Diuretic activity in spontaneously hypertensive rats (0-5 hour urine)
Assay type: in vivo, Male spontaneously hypertensive rats (SHR) of Okamoto strain
Conditions: 100 mg/kg by gavage, sodium chloride loading, SHR
Protocol: The diuretic activity of the compounds of this invention was also determined according to the method of Chan, P. S. and Poorvin, D., "Sequential method for combined screening antihypertensive and diuretic agents in the same spontaneously hypertensive rat." Clinical and Experimental Hypertension, 1(6), 817-830 (1979). […] The 0-5 hour urine was collected and urinary sodium and potassium were determined using a Beckman Astra 4.
Think of 0.5 MEQ/5 Hours as a floor: if Potassium (urinary) stands on it or above, it is t; beneath it, f.

Consider the following illustrative entries.
Given Smiles	Assigned Category
CCOC(=O)N=P(c1ccccc1)(c1ccccc1)c1ccccc1CN1CCCC1	t
CCOC(=O)N=P(c1ccccc1)(c1ccccc1)c1ccccc1CN(C)C	t
CCOC(=O)N=P(c1ccccc1)(c1ccccc1)c1ccccc1CN1CCCCC1	f

Check if Potassium (urinary) >= 0.5 MEQ/5 Hours (inclusive). Item: "CCCN(CCC)Cc1ccccc1P(=NC(=O)OCC)(c1ccccc1)c1ccccc1"
f

Has "COC(=O)N=P(c1ccccc1)(c1ccccc1)c1ccccc1CN(C)C" a recorded Potassium (urinary) greater than or equal to 0.5 MEQ/5 Hours?
t

For this compound, is measured Potassium (urinary) 0.5 MEQ/5 Hours or higher? "CCOC(=O)N=P(c1ccccc1)(c1ccccc1)c1ccccc1CN(CC)CC"
f

====

Overview of reported Sodium (urinary) across a group of compounds:
system: Spontaneously Hypertensive Rats; assay: Diuretic activity in spontaneously hypertensive rats (0-5 hour urine); format: in vivo, Male spontaneously hypertensive rats (SHR) of Okamoto strain; conditions: 100 mg/kg by gavage, sodium chloride loading, SHR
Give the quantity in MEQ/5 Hours, number only.

// worked examples, Sodium (urinary) included
Given Smiles	Assay Endpoint	Scale Unit	Measured Value
CCCN(CCC)Cc1ccccc1P(=NC(=O)OCC)(c1ccccc1)c1ccccc1	Sodium (urinary)	MEQ/5 Hours	1.41
CCOC(=O)N=P(c1ccccc1)(c1ccccc1)c1ccccc1CN1CCCC1	Sodium (urinary)	MEQ/5 Hours	1.36
COC(=O)N=P(c1ccccc1)(c1ccccc1)c1ccccc1CN(C)C	Sodium (urinary)	MEQ/5 Hours	1.62
CCOC(=O)N=P(c1ccccc1)(c1ccccc1)c1ccccc1CN(C)C	Sodium (urinary)	MEQ/5 Hours	1.47
CCOC(=O)N=P(c1ccccc1)(c1ccccc1)c1ccccc1CN1CCCCC1	Sodium (urinary)	MEQ/5 Hours	1.92
CCOC(=O)N=P(c1ccccc1)(c1ccccc1)c1ccccc1CN(CC)CC	Sodium (urinary)	MEQ/5 Hours	2.46

Item "CCOC(=O)N=P(c1ccccc1)(c1ccccc1)c1ccccc1CNC.Cl" with Spontaneously Hypertensive Rats - Sodium (urinary)?
1.66
